- Target Desc: furin, P09958;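 further: purified furin at 1:10 enzyme:substrate in 50 mM HEPES pH 7.5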
- Sequence (P09958 whole entry): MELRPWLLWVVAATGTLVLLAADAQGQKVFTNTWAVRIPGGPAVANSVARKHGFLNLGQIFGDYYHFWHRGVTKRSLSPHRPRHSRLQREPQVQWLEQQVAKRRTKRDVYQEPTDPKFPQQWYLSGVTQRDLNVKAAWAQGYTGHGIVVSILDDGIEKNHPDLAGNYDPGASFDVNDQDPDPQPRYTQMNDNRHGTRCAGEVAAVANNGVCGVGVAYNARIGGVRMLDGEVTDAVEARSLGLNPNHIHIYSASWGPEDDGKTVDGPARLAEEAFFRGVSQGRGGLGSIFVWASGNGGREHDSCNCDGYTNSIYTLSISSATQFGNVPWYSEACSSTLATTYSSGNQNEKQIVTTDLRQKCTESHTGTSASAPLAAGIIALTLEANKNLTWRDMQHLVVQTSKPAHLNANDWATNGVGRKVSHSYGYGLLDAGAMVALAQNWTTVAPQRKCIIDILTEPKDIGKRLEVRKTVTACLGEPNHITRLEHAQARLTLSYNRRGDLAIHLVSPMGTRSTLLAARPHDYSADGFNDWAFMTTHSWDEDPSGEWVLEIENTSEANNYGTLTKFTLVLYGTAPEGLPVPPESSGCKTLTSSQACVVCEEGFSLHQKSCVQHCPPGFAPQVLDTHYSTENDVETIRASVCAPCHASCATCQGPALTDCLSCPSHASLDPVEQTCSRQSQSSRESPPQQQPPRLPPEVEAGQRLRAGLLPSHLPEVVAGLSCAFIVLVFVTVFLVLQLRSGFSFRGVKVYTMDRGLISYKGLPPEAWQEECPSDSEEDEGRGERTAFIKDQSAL
- Test Summary: furin cleavage Z-score vs untreated control; higher = more cleavage, active = 3.5 or more, inactive = 1 or less, 8 variable residues between constant flanks
- Condition: 15 min
This is one part of the list. The hit rate among all sequences tested is not known here.
# label = 1 (yes) if furin cleavage Z-score >= -0.4 else 0 (no)

See these solved cases before continuing.
[
  {
    "Sequence Code": "CASGGRTKRYAGNASASA [FS-191]",
    "Category Label": "1 (yes)"
  },
  {
    "Sequence Code": "CAKYSRSYRYAGNASASA [FS-937]",
    "Category Label": "0 (no)"
  },
  {
    "Sequence Code": "CAPERLASCRAGNASASA [HC387]",
    "Category Label": "1 (yes)"
  },
  {
    "Sequence Code": "CASPLTTSQTAGNASASA [HC1060]",
    "Category Label": "0 (no)"
  },
  {
    "Sequence Code": "CALQRRKKKGAGNASASA [FS-1643]",
    "Category Label": "0 (no)"
  }
]

Could you tell me if the measured furin cleavage Z-score of CAYFVRVQGLAGNASASA [HC616] reaches -0.4 or more? 1 (yes)

Could you tell me if the measured furin cleavage Z-score of CAPSRRVKRSAGNASASA [FS-1149] reaches -0.4 or more? 1 (yes)

Could you tell me if the measured furin cleavage Z-score of CAPGALVVGVAGNASASA [HC1105] reaches -0.4 or more? 1 (yes)
